Hey, just so you know, these numbers are from patent US20240269276A1.

Answer each item with its documented koff.
assayed-target: T1, human PD-L1 protein with histidine tag (ACROBiosystems #PD-1-H5258) (human, UniProt Q9NZQ7 19-238)
T1 construct: Bought protein; also called His PD-L1; human PD-L1 proteins; not shown: histidine tag
T1 sequence (Q9NZQ7 19-238 limits assumed): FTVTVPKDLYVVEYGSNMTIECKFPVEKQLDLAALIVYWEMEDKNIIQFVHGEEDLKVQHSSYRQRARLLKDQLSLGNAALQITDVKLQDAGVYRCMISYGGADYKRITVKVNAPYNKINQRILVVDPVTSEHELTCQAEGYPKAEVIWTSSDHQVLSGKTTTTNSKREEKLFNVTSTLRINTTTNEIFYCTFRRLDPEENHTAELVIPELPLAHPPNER
experimental-details: BLI (Octet Red96e); His-tagged human PD-L1 captured on HIS1K sensor, antibody at 60 nM; 1:1 fit
Numbers only, in s⁻¹.

Worked cases, koff given:
PR005867 (antibody, human IgG1, V domains shown, The HC entry is used) VH: QVQLVESGGGVVQPGMSLRLSCAASGFTFSSYGMYWVRQAPGKGQEWVAIIWYDGTKKHYADSVKGRFTISRDNSKNTLYLEMNSLRVEDTAVYYCAKNRAIFGVIPDDSDIRGQGTMVTVSS    0.000468
PR005263 (antibody, human IgG1, V domains shown, The HC entry is used) VH: QVQLVESGGGVVQPGMSLRLSCAASGFTFSSYGMYWVRQAPGKGQEWVASIRYTGTEKHYADSVKGRFTISRDNSKNTLYLEMNSLRVEDTAVYYCAKNRAIFGVVPDASDIRGQGTMVTVSS    0.000227
PR005872 (antibody, human IgG1, V domains shown, The HC entry is used) VH: QVQLVESGGGVVQPGMSLRLSCAASGFTFSSYGMYWVRQAPGKGQEWVASIRYTGTEKHYADSVKGRFTISRDNSKNTLYLEMNSLRVEDTAVYYCAKNRAIFGVIPDDSDIRGQGTMVTVSS    0.000187

Next, consider the following binder.
Task: Give the reported koff for this binder. PR002082 (antibody, human IgG1, V domains shown, HCAb; also called PTM variant of PR000960 (N28T, N31S)) VH: QVQLVESGGGVVQPGMSLRLSCAASGFTFSSYGMYWVRQAPGKGQEWVAIIWYDGTKKHYADSVKGRFTISRDNSKNTLYLEMNSLRVEDTAVYYCAKNRAIFGVVPDASDIRGQGTMVTVSS
Output: 0.00118
